Data provenance is ChEMBL document CHEMBL1629484.

For each record, write down the corresponding IC50.
system.name: Transient receptor potential cation channel subfamily V member 1 (Rattus norvegicus, UniProt O35433)
Sequence (O35433 whole entry): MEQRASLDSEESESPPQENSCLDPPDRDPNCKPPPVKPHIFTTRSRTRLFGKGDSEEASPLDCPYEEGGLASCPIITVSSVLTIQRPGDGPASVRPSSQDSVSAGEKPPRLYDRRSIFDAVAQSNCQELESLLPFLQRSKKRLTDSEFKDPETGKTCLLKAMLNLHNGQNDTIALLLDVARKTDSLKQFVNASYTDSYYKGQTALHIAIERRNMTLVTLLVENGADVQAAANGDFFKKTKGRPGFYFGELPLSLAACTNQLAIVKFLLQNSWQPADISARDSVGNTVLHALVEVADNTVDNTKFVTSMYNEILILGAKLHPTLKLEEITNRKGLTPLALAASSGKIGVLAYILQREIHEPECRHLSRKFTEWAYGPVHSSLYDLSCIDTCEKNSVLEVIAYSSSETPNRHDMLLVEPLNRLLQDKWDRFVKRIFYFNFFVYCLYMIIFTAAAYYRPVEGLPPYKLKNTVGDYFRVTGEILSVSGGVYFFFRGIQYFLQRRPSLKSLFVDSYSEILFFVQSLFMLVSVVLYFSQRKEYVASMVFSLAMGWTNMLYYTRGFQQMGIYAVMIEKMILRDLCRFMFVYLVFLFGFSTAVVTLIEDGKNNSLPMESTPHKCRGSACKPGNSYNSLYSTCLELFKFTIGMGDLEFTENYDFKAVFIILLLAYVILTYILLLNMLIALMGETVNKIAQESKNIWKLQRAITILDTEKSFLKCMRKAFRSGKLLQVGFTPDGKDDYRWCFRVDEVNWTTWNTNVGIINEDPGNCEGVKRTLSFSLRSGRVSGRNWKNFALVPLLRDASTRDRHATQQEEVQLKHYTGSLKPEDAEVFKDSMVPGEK
assay.text: Antagonist activity at rat TRPV1 expressed in HEK293 cells assessed as inhibition of capsaicin-induced intracellular Ca2+ level by FLIPR assay
Type: functional, cell-based
One number for each entry, in nM.

// known answers, use as guide
# compound, measured.attribute, value
measured = [
    ("CC(=O)NC1CCN(c2nc3c(c(Nc4ccc(C(F)(F)F)cc4)n2)CCN(c2ncccc2C(F)(F)F)CC3)C1 (stereo not drawn)", "IC50", 410),
    ("FC(F)(F)c1ccc(Nc2nc(N3CCN(C4CC4)CC3)nc3c2CCN(c2ncccc2C(F)(F)F)CC3)cc1", "IC50", 45),
    ("CN(c1nc2c(c(Nc3ccc(C(F)(F)F)cc3)n1)CCN(c1ncccc1C(F)(F)F)CC2)C1CCCN(C(=O)OC(C)(C)C)C1 (stereo not drawn)", "IC50", 97),
    ("CCC(CC)N1CCN(c2nc3c(c(Nc4ccc(C(F)(F)F)cc4)n2)CCN(c2ncccc2C(F)(F)F)CC3)CC1", "IC50", 185),
]

Here's the next entry for you.
Briefly, IC50 measured for "CN(C)[C@@H]1CCN(c2nc3c(c(Nc4ccc(C(F)(F)F)cc4)n2)CCN(c2ncccc2C(F)(F)F)CC3)C1" : 1040

---

system.name: Transient receptor potential cation channel subfamily V member 1 (Homo sapiens)
Sequence (Q8NER1 whole entry): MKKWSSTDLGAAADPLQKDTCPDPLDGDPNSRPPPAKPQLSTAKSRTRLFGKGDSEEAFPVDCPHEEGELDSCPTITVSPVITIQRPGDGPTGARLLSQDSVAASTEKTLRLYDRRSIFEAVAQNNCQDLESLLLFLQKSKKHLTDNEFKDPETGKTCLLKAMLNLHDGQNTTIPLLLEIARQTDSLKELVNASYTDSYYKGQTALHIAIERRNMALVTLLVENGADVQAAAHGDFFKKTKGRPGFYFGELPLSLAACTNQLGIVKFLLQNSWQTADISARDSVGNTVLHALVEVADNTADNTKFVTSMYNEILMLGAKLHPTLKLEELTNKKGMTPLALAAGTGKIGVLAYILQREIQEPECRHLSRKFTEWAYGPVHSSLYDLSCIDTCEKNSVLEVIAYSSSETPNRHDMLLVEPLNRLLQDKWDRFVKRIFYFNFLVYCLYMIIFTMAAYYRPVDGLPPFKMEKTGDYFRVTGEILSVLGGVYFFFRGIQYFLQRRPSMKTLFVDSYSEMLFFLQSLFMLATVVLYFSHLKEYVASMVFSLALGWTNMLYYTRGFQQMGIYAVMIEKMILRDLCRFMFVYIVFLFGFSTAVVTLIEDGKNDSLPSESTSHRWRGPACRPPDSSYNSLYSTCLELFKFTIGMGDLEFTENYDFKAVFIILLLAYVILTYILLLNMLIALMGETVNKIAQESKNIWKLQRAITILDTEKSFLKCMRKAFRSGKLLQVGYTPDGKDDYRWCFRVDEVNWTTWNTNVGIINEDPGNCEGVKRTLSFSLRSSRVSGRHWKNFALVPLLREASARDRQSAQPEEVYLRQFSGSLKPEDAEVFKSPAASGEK
assay.text: Antagonist activity at human TRPV1 expressed in HEK293 cells assessed as inhibition of capsaicin-induced intracellular Ca2+ level by FLIPR assay
Format: functional, cell-based
For each record, write down the corresponding pIC50.
Answers are plain numbers, as −log10 of the molar value.

# molecule, measured.attribute, value
data = [
    ("CC(C)(C)OC(=O)N1CCCC(Nc2nc3c(c(Nc4ccc(C(F)(F)F)cc4)n2)CCN(c2ncccc2C(F)(F)F)CC3)C1 (stereo unspecified)", "pIC50", 6.85),
]

Please supply pIC50 for each of the following items, keeping them in order.
1. CN(c1nc2c(c(Nc3ccc(C(F)(F)F)cc3)n1)CCN(c1ncccc1C(F)(F)F)CC2)C1CCCNC1 (stereo unspecified)
2. CN(C)CCN(C)c1nc2c(c(Nc3ccc(C(F)(F)F)cc3)n1)CCN(c1ncccc1C(F)(F)F)CC2
3. CN1CCCCC1CNc1nc2c(c(Nc3ccc(C(F)(F)F)cc3)n1)CCN(c1ncccc1C(F)(F)F)CC2 (stereo unspecified)
4. OCCN1CCN(c2nc3c(c(Nc4ccc(C(F)(F)F)cc4)n2)CCN(c2ncccc2C(F)(F)F)CC3)CC1

### Response
1. 5.44
2. 5.57
3. 5.76
4. 6.30

Please supply pIC50 for each of the following items, keeping them in order.
1. CN(C)[C@H]1CCN(c2nc3c(c(Nc4ccc(C(F)(F)F)cc4)n2)CCN(c2ncccc2C(F)(F)F)CC3)C1
2. CNC1CCN(c2nc3c(c(Nc4ccc(C(F)(F)F)cc4)n2)CCN(c2ncccc2C(F)(F)F)CC3)C1 (stereo unspecified)

### Response
1. 6.73
2. 5.55

Please supply pIC50 for each of the following items, keeping them in order.
1. CC(=O)NC1CCN(c2nc3c(c(Nc4ccc(C(F)(F)F)cc4)n2)CCN(c2ncccc2C(F)(F)F)CC3)C1 (stereo unspecified)
2. CCN1CCN(c2nc3c(c(Nc4ccc(C(F)(F)F)cc4)n2)CCN(c2ncccc2C(F)(F)F)CC3)CC1
3. CC(C)(C)OC(=O)N1CCCCC1CNc1nc2c(c(Nc3ccc(C(F)(F)F)cc3)n1)CCN(c1ncccc1C(F)(F)F)CC2 (stereo unspecified)
4. FC(F)(F)c1ccc(Nc2nc(NCc3ccccn3)nc3c2CCN(c2ncccc2C(F)(F)F)CC3)cc1
5. CC(=O)N(C)C1CCN(c2nc3c(c(Nc4ccc(C(F)(F)F)cc4)n2)CCN(c2ncccc2C(F)(F)F)CC3)C1 (stereo unspecified)
6. NC1CCN(c2nc3c(c(Nc4ccc(C(F)(F)F)cc4)n2)CCN(c2ncccc2C(F)(F)F)CC3)C1 (stereo unspecified)
7. CN(CC1CCCCN1C)c1nc2c(c(Nc3ccc(C(F)(F)F)cc3)n1)CCN(c1ncccc1C(F)(F)F)CC2 (stereo unspecified)

### Response
6.82
6.88
6.60
6.32
7.21
5.43
5.48
